- System: SK-MEL-5 melanoma
- experimental details: NCI tumour cell line growth inhibition, 48 h
reported property: TGI

# compound, result
data = [
    ("Cc1nc2c(ccc3ncccc32)[nH]1", "> 100 µM"),
]

Each compound below has a recorded value; state its TGI.
1. CNS(=O)(=O)NNS(=O)(=O)c1ccccc1
2. Cc1ccc([N+](=O)[O-])cc1NC1=NCCO1
3. COc1ccc(COCCOCc2nc(C#N)c(N)o2)cc1
4. COC(=O)c1ccccc1NC(=O)C(=O)Cc1nc2c3c(ccc2[nH]c1=O)C(=O)c1ccccc1C3=O

["> 100 µM", "> 100 µM", "> 100 µM", "13.6 µM"]

Each compound below has a recorded value; state its TGI.
1. CCCCCCCCCCCC(=O)OCCOCCOCCOCCOCCOCc1ccccc1
2. CCCCC#C[I+]c1ccccc1
3. C=C(C)C(=O)OC1C/C(CO)=C\C(O)C/C(C)=C/C2OC(=O)C(=C)C21 (stereo not drawn)
4. Nn1c(-c2ccccc2)nn(C(=O)c2ccccc2)c1=O

1: > 100 µM; 2: 31.1 µM; 3: 44.1 µM; 4: > 100 µM

Each compound below has a reported value. Please supply its TGI.
1. COC(=O)C1(C(C)C)CCc2c(OC)ccc(OC)c2C1=O (stereo not drawn)
2. COc1cccc(C2c3cc4c(cc3OC(C)(N3CCCC3)C2C)OCO4)c1O (stereo not drawn)
3. CCOC(=O)Cn1c(C(F)(F)F)nc2nc(Cl)c(Cl)nc21

1. > 100 µM
2. 13.3 µM
3. 76.9 µM

Each of the following entries comes with a recorded value; kindly state TGI for each.
1. CCOC(=O)/C=C/CC(C)(C)CCOC(C)=O
2. O=C(Nc1ccc(-n2ccc3c(NC(=O)c4ccccc4)nccc32)cc1)c1ccc(Cl)c(C(F)(F)F)c1
3. CC1(C)N=[N+]([O-])C1(C)C
4. Cc1ccc(S(=O)(=O)OC[C@@H]2CO2)cc1
5. O=C(CCN1CCCCC1)C(=Cc1ccccc1)C(=O)CCN1CCCCC1
6. Cc1c(C(=O)CC(=O)C(=O)Nc2ccccc2C(F)(F)F)[n+](=O)c2ccccc2n1[O-]
7. Cc1cc(-c2nc(C(=O)Nc3cc4oc(N5CCOCC5)nc4nc3N3CC[C@@H](O)C3)co2)ccn1
8. CC1(C)OC(=O)N(c2ccccc2)C12C=Cc1cc([N+](=O)[O-])cc([N+](=O)[O-])c1O2 (stereo not drawn)

["> 10 µM", "8.67 µM", "> 100 µM", "> 100 µM", "> 100 µM", "30.4 µM", "> 100 µM", "> 100 µM"]

Each compound below has a reported value. Please supply its TGI.
1. Clc1ccccc1C(SCc1ccccc1)SCc1ccccc1
2. O=[N+]([O-])c1ccc2c(c1)c(OCc1ccccc1)nn2Cc1ccccc1
3. Cc1ccc2c(C)c3c(ccc4ccccc43)c[n+]2c1
4. CC1CCC(n2c3cnccc3c3cnc(Nc4ccc5c(n4)CCN(C(=O)CO)C5)nc32)CC1 (stereo not drawn)
5. COc1cc(C(=O)N(C(=S)OCc2ccccn2)c2ccccc2)cc(OC)c1OC
6. COc1ccc2cc(NC(=O)N/N=C\c3ccc([N+](=O)[O-])cc3)ccc2c1

["> 100 µM", "> 100 µM", "10.4 µM", "> 100 µM", "> 100 µM", "> 100 µM"]

Go through the items and report each one's TGI.
1. CCC(=O)[C@H](C)[C@@H](OC(=O)[C@H](C)CC)[C@H](C)[C@H]1OC(CC)=C(C)C(=O)[C@@H]1C
2. Cc1cn2c(/C=N/N=C(N)N)c(-c3cccc([N+](=O)[O-])c3)nc2s1

28.8 µM
3.13 µM

Would you mind giving TGI for every compound in the list below?
1. N#CCCC1C(C#N)C2(Cl)CC1(Cl)C(Cl)=C2Cl (stereo not drawn)
2. O=c1c2cc([N+](=O)[O-])cnc2sn1-c1ccc([N+](=O)[O-])cc1
3. COc1ccc2c(c1)sc1nc(-c3ccccc3)c(-c3cccc4ccccc34)n12

1. > 10 µM
2. > 100 µM
3. 0.856 µM

I need TGI for every entry listed below, if you could help.
1. C[C@@H](NC(=O)[C@@H]1C[C@]1(C)COC(=O)c1cc([N+](=O)[O-])cc([N+](=O)[O-])c1)c1cccc2ccccc12
2. CN1C(=O)C2CCC(=O)N2c2cccnc21 (stereo not drawn)
3. Cc1ccc(CN2CCC(C(=O)Nc3ccc(-c4cc5ccccc5[nH]4)cc3)CC2)o1
4. CCN(CC)N=Nc1c(C(N)=O)n[nH]c1C

1. > 100 µM
2. > 100 µM
3. > 100 µM
4. > 100 µM

Provenance of the data: PubChem BioAssay (NCI)
